Below, each entry is listed alongside its reported Positive cases/total cases, Total.
# System: anti-peptide immunoglobulin G (IgG) in plasma
# measurement protocol: Anti-peptide IgG in plasma measured by the Luminex system
# Assay type: binding, human
# run conditions: Table 3, patients plus healthy donors
property measured: Positive cases/total cases, Total

>>> reported_result("QYLVRASYL (KIF3C 137-145 peptide)")
"3/20"
>>> reported_result("GYLIIENFI (KIF3C 629-637 peptide)")
"1/20"
>>> reported_result("SYDESLSTL (KIF3C 347-355 peptide)")
"0/20"
>>> reported_result("IYCERVRDL (KIF1C 149-157 peptide)")
"15/20"
>>> reported_result("GYASTDEEI (KIF21B 220-228 peptide)")
"5/20"
>>> reported_result("VYIKDLSSF (KIF3C 174-182 peptide)")
"3/20"
>>> reported_result("RFVPPHDCKL (KIF1C 968-977 peptide)")
"9/20"
>>> reported_result("VYRDIGEEML (KIF1C 73-82 peptide)")
"9/20"
>>> reported_result("EYIRVRQDL (KIF3C 607-615 peptide)")
"5/20"
>>> reported_result("NYVPGLTPCL (KIF21B 731-740 peptide)")
"2/20"
>>> reported_result("IYQEEIRDLL (KIF3C 147-156 peptide)")
"1/20"
